# Tested on: TP53
# PROCEDURE_SUMMARY: 3' UTR reporter interaction score (median-centred robust z-score of log2 firefly/Renilla activity); higher = less repression of the 3' UTR reporter
# CONDITION_SET: HEK293T; 48 h
Classify as follows. Reported 3' UTR reporter interaction score greater than or equal to -0.3: MET. Reported 3' UTR reporter interaction score below: NOT MET.

A selection of reference data follows.
q: Item `AUGAUCCAGGAACCUGCCUCU` with 3' UTR reporter interaction score of -0.3 or above?
a: MET

q: Subsequent entry: `ACUUGGGCACUGAAACAAUGUCC`
a: NOT MET

q: Input `UAGGCAGUGUCAUUAGCUGAUUG`
a: MET

q: // next record `GAGUGCCUUCUUUUGGAGCGU`
a: MET

q: Request: `AAUCGUACAGGGUCAUCCACUU`
a: MET

***
q: In plain terms: is recorded 3' UTR reporter interaction score at least -0.3 for `AGGAAUGUUCCUUCUUUGCC` ?
a: NOT MET

q: Queued: `UGAAGGUCUACUGUGUGCCAG`
a: MET

q: Another sequence: `GCUGCGCUUGGAUUUCGUCCCC`
a: NOT MET

q: Would you kindly repeat that for `UGAUUGUAGCCUUUUGGAGUAGA` ?
a: NOT MET

q: `AGGCACCAGCCAGGCAUUGCUCAGC` ?
a: MET

q: Entry to check: `UAAGUGCUUCCAUGUUUUGGUGA`
a: MET

q: Continue with `UAAUCUCAGCUGGCAACUGUG`
a: NOT MET

q: Consider next the sequence `UGAUAUGUUUGAUAUAUUAGGU` in the same way.
a: MET

q: Would you mind doing `AAAGUGCUGUUCGUGCAGGUAG` as well?
a: MET

q: Another sequence: `GAUGAGCUCAUUGUAAUAUG`
a: MET

* * *

# System: MYCN
# PROCEDURE_SUMMARY: 3' UTR reporter interaction score (median-centred robust z-score of log2 firefly/Renilla activity); higher = less repression of the 3' UTR reporter
# CONDITION_SET: HEK293T; 48 h
QUANTITY_NAME: 3' UTR reporter interaction score

q: Name the recorded 3' UTR reporter interaction score for `AGACCCUGGUCUGCACUCUAU` .
a: 1.92

q: Repeat for the following sequence: `UUAUCAGAAUCUCCAGGGGUAC`
a: -0.164

q: Same for `UGCUGACUCCUAGUCCAGGGC`
a: 0.0884

q: What do you get for `AAUGGCGCCACUAGGGUUGUGCA` ?
a: 0.439

q: Moving on to `UCAGUGCAUCACAGAACUUUGU`
a: 0.974

Continuing:
q: Bench note: what 3' UTR reporter interaction score did `UUUUUGCGAUGUGUUCCUAAUA` show?
a: -0.818

q: Follow-up item: `UUCUCCAAAAGAAAGCACUUUCUG`
a: -0.288

q: Could you do the same for `AAGGAGCUCACAGUCUAUUGAG` , please?
a: 1.38

q: Similarly, `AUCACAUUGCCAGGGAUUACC` ?
a: 0.139

q: Please do the same for `GGCAAGAUGCUGGCAUAGCUG` as well.
a: 0.322

q: Thanks! And `UACAGUAGUCUGCACAUUGGUU` ?
a: 0.292

q: Repeat for the following sequence: `AACUGGCCUACAAAGUCCCAG`
a: -2.47

q: // same read-out, input: `AUCGUGCAUCCUUUUAGAGUGU`
a: 1.14

q: Now give it for `UCGGAUCCGUCUGAGCUUGGCU` too.
a: 1.3

q: Consider next the sequence `UAAGGUGCAUCUAGUGCAGAUA` in the same way.
a: -0.0167

* * *

# Test system: RB1
# PROCEDURE_SUMMARY: 3' UTR reporter interaction score (median-centred robust z-score of log2 firefly/Renilla activity); higher = less repression of the 3' UTR reporter
# CONDITION_SET: HEK293T; 48 h
QUANTITY_NAME: 3' UTR reporter interaction score
# print the numeric value only

Completed entries (count: 3):
q: Give its 3' UTR reporter interaction score value. Item: `UGUAAACAUCCUUGACUGGA`
a: -0.17

q: // repeat for `UUGGUCCCCUUCAACCAGCUGU` and report
a: -0.063

q: Check `UACCCUGUAGAACCGAAUUUGU` too.
a: -0.148

Others:
q: Form field: reported 3' UTR reporter interaction score of `GGUAGAUUCUCCUUCUAUGAG`
a: -0.935

q: Request: `AUCAUAGAGGAAAAUCCAUGUU`
a: 0.00936

q: Next: `GUCCAGUUUUCCCAGGAAUCCCUU`
a: -0.0539

q: Would you mind doing `UGUGCUUGCUCGUCCCGCCCGCAG` as well?
a: 0.514

q: # repeat for `AAACUACUGAAAAUCAAAGAU`
a: 0.321

* * *

# Test system: EZH2
# PROCEDURE_SUMMARY: 3' UTR reporter interaction score (median-centred robust z-score of log2 firefly/Renilla activity); higher = less repression of the 3' UTR reporter
# CONDITION_SET: HEK293T; 48 h
Label criterion met when 3' UTR reporter interaction score >= -0.2; otherwise criterion not met.

Answered cases to consult:
q: Determine whether measured 3' UTR reporter interaction score meets or exceeds -0.2 for `ACUCCAUUUGUUUUGAUGAUGGA`
a: criterion met

q: Ok, now `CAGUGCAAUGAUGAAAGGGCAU`
a: criterion not met

q: What do you get for `UAUGUGGGAUGGUAAACCGCUU` ?
a: criterion met

q: Now consider `UUUGGCAAUGGUAGAACUCACA` and answer again.
a: criterion met

q: Another sequence: `CUCCAGAGGGAAGUACUUUCU`
a: criterion not met

q: And what about the sequence `UAAGGUGCAUCUAGUGCAGUUA` ?
a: criterion met

q: Please do the same for `CUGGCCCUCUCUGCCCUUCCGU` as well.
a: criterion met

q: Try this sequence next: `GAGGUUGUCCGUGGUGAGUUCG`
a: criterion not met

q: Also `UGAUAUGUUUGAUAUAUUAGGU` , if possible.
a: criterion met

q: Next sequence up: `GGUCCAGAGGGGAGAUAGG`
a: criterion met

Next:
q: Determine whether measured 3' UTR reporter interaction score meets or exceeds -0.2 for `UAACAGUCUCCAGUCACGGCC`
a: criterion met

q: Repeat for the following sequence: `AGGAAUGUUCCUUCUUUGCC`
a: criterion not met

* * *

# System: MYT1L
# PROCEDURE_SUMMARY: 3' UTR reporter interaction score (median-centred robust z-score of log2 firefly/Renilla activity); higher = less repression of the 3' UTR reporter
# CONDITION_SET: HEK293T; 48 h
QUANTITY_NAME: 3' UTR reporter interaction score
Answer with the value's number alone.

Please review the entries below; each comes with its answer.
q: 3' UTR reporter interaction score for `AAACAAACAUGGUGCACUUCUUU` ?
a: -1.89

q: Subsequent entry: `UCUGCUCAUACCCCAUGGUUUCU`
a: -0.849

q: `AGGACCUGCGGGACAAGAUUCUU` ?
a: -0.0205

q: // repeat for `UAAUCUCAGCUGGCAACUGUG` and report
a: -0.796

More entries:
q: Recorded 3' UTR reporter interaction score for `UGAGACCUCUGGGUUCUGAGCU` , please?
a: 0.762

q: `ACUCCAGCCCCACAGCCUCAGC` ?
a: -0.581

q: Moving on to `UCCUGUACUGAGCUGCCCCGAG`
a: -1.49

* * *

# System: BRCA2
# PROCEDURE_SUMMARY: 3' UTR reporter interaction score (median-centred robust z-score of log2 firefly/Renilla activity); higher = less repression of the 3' UTR reporter
# CONDITION_SET: HEK293T; 48 h
Reported 3' UTR reporter interaction score values for a set of sequences
Respond using a number only.

Below: 2 sequences and their reported 3' UTR reporter interaction score.
q: What value of 3' UTR reporter interaction score has been recorded for this entry: `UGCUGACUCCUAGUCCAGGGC`
a: -3.34

q: Further, for `UGUGACAGAUUGAUAACUGAAA` ?
a: -1.43

---
q: Returns the measured 3' UTR reporter interaction score for the input sequence. Input: `AUAAGACGAGCAAAAAGCUUGU`
a: 2.27

q: How about `GUGUCUGCUUCCUGUGGGA` ?
a: 0.42

q: Could you do the same for `UUAAUGCUAAUCGUGAUAGGGG` , please?
a: -0.67

q: Please give the result for `UCUUUGGUUAUCUAGCUGUAUGA` too.
a: -0.397

q: And the next one, `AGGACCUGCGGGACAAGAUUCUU` ?
a: 0.115

q: Request: `AAAGUGCAUCCUUUUAGAGUGUUAC`
a: -0.464

q: And `AGACCUGGCCCAGACCUCAGC` ?
a: -0.79

q: For `UAGCAGCGGGAACAGUUCUGCAG` then?
a: 0.681

q: Moving on to the next sequence: `UCGGGGAUCAUCAUGUCACGAG`
a: 0.268

q: Record: `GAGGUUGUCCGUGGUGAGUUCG`
a: -0.325

q: // query: `UCACAGUGAACCGGUCUCUUUU`
a: -0.31

q: Moving on to the next sequence: `UUCCCUUUGUCAUCCUAUGCCU`
a: 0.265

q: Moving on to `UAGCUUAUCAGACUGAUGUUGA`
a: -0.228

q: Field entry: `UGAGCUGCUGUACCAAAAU`
a: -0.363

q: Param item: `GUGUCUUUUGCUCUGCAGUCA`
a: -0.493

q: Note, next up: `UCUACAGUGCACGUGUCU`
a: -0.808

q: Entry to check: `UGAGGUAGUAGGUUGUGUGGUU`
a: 1.21

q: Lookup `AUCAACAGACAUUAAUUGGGCGC`
a: 1.26
